Provide the reported inhibition of each item.
- target.system: Voltage-dependent T-type calcium channel subunit alpha-1G (Homo sapiens, UniProt O43497)
- Sequence (O43497 whole entry): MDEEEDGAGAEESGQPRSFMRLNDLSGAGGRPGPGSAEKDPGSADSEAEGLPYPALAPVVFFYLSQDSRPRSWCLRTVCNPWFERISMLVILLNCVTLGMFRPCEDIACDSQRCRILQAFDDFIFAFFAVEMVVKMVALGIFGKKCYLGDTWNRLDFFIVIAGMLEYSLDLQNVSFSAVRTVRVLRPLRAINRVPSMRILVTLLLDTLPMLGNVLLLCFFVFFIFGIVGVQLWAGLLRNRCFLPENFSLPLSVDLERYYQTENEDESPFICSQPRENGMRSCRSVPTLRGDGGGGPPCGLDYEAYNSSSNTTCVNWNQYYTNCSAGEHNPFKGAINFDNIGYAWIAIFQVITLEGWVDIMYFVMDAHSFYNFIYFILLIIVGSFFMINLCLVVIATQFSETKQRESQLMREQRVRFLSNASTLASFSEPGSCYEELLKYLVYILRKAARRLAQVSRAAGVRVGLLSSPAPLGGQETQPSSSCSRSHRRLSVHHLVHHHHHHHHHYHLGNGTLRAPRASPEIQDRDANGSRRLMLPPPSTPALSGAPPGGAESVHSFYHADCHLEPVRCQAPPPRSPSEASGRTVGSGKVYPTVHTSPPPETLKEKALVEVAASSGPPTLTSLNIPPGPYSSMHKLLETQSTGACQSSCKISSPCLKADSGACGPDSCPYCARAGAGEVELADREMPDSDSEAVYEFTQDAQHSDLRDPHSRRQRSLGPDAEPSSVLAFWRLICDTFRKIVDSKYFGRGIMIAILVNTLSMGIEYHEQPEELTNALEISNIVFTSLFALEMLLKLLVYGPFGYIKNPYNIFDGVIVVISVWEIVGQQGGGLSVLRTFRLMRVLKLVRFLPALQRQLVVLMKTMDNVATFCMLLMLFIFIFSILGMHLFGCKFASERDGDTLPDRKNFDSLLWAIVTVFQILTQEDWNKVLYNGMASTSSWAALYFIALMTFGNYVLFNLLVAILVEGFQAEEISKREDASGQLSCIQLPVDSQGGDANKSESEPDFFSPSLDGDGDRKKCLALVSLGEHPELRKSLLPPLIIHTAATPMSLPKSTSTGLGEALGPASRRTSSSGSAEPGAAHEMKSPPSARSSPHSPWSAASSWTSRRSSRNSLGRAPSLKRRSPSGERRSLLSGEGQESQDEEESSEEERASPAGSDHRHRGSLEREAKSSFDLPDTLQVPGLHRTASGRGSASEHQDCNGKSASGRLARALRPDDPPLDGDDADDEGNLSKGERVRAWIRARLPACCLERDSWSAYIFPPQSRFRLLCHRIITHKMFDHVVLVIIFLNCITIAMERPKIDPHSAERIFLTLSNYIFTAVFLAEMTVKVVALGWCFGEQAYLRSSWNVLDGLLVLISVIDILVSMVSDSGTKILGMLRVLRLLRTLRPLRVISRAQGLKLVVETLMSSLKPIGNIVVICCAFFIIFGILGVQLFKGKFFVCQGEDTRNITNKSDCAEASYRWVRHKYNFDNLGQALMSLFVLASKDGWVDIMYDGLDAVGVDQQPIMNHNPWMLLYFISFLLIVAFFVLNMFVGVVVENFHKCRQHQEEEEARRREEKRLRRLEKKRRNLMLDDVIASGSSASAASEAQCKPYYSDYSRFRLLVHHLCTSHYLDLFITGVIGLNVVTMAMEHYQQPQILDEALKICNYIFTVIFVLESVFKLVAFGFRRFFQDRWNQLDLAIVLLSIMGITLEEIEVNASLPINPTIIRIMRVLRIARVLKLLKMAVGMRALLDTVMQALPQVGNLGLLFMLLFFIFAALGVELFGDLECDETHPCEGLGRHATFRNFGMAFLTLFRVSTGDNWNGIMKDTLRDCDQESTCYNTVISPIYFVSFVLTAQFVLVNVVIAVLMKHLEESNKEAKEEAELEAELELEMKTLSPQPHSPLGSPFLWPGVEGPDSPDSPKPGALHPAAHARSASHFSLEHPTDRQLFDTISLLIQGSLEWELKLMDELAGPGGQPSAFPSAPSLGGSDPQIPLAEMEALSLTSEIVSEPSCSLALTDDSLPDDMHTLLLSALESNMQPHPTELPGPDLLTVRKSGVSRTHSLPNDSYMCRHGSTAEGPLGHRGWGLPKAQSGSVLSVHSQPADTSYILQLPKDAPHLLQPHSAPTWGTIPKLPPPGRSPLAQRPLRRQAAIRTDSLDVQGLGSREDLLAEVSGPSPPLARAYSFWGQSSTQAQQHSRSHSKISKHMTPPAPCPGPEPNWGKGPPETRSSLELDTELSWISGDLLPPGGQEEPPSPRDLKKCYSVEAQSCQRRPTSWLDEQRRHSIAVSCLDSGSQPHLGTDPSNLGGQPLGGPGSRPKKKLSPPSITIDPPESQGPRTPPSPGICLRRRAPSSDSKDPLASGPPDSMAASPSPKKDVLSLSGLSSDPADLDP
- assay: Inhibition of alpha-1G calcium channel in human HEK293 cells at 10 uM by FDSS6000 fluorescence-based assay
One number for each entry, in %.

| compound.smiles | target.system | test.result |
| --- | --- | --- |
| O[C@H](COc1ccc(C(F)(F)F)cc1)CN1CCN(Cc2ccc(Cl)cc2)CC1 | Voltage-dependent T-type calcium channel subunit alpha-1G (Homo sapiens, UniProt O43497) | 56.6 |
| O[C@H](COc1ccc(Cl)cc1)CN1CCN(Cc2ccc(Cl)cc2)CC1 | Voltage-dependent T-type calcium channel subunit alpha-1G (Homo sapiens, UniProt O43497) | 56.5 |
| O[C@@H](COc1ccc(F)cc1)CN1CCN(Cc2ccccc2F)CC1 | Voltage-dependent T-type calcium channel subunit alpha-1G (Homo sapiens, UniProt O43497) | 23.8 |
| O[C@@H](COc1ccc(C(F)(F)F)cc1)CN1CCN(Cc2ccc(Cl)cc2)CC1 | Voltage-dependent T-type calcium channel subunit alpha-1G (Homo sapiens, UniProt O43497) | 61.5 |
| O[C@H](COc1ccc(Cl)cc1)CN1CCN(Cc2ccccc2F)CC1 | Voltage-dependent T-type calcium channel subunit alpha-1G (Homo sapiens, UniProt O43497) | 41.5 |

Batch lookup, inhibition per entry.
1. O[C@@H](COc1ccc(C(F)(F)F)cc1)CN1CCN(Cc2c(F)cccc2Cl)CC1
2. O[C@H](COc1ccc(C(F)(F)F)cc1)CN1CCN(c2ccc(F)cc2)CC1
3. O[C@H](COc1ccc(Cl)cc1)CN1CCN(Cc2ccc(Cl)c(Cl)c2)CC1
4. O[C@@H](COc1ccc(C(F)(F)F)cc1)CN1CCN(Cc2cccc(Cl)c2)CC1
5. O[C@@H](COc1ccc(Cl)cc1)CN1CCN(Cc2c(F)cccc2Cl)CC1

44.6
59.2
41.2
43.1
40.9

----------
- target.system: Voltage-dependent T-type calcium channel subunit alpha-1G (Homo sapiens, UniProt O43497)
- assay: Inhibition of alpha-1G calcium channel in human HEK293 cells by whole-cell patch-clamp method
measured.property: IC50 (nM)
One number for each entry, in nM.

Known results for compounds:
| compound.smiles | unit.descriptor | IC50 |
| --- | --- | --- |
| O[C@@H](COc1ccc(F)cc1)CN1CCN(Cc2cccc(Cl)c2)CC1 | nM | 2100 |
| COc1cccc(N2CCN(C[C@@H](O)COc3ccc(F)cc3)CC2)c1 | nM | 12000 |
| O[C@@H](COc1ccc(F)cc1)CN1CCN(Cc2c(F)cccc2Cl)CC1 | nM | 12300 |
| O[C@H](COc1ccc(Cl)cc1)CN1CCN(Cc2c(F)cccc2Cl)CC1 | nM | 1420 |

Kindly give each listed record's IC50.
1. O[C@H](COc1ccc(C(F)(F)F)cc1)CN1CCN(Cc2ccc(Cl)cc2)CC1
2. O[C@H](COc1ccc(F)cc1)CN1CCN(Cc2cccc(Cl)c2)CC1
3. O[C@H](COc1ccc(F)cc1)CN1CCN(Cc2ccc(Cl)cc2)CC1
4. COc1ccccc1N1CCN(C[C@@H](O)COc2ccc(C(F)(F)F)cc2)CC1
5. O[C@H](COc1ccc(C(F)(F)F)cc1)CN1CCN(c2ccc(F)cc2)CC1

1: 4230; 2: 2580; 3: 1560; 4: 1790; 5: 15500

----------
- assay: Tmax in ICR mouse plasma at 10 mg/kg, po
- Assay type: ADME, organism-based
- Design: dose 10 mg/kg, route oral
Would you kindly list Tmax for each of these compounds?
Give bare numbers, in min.

| compound.smiles | Tmax, min |
| --- | --- |
| O[C@H](COc1ccc(C(F)(F)F)cc1)CN1CCN(Cc2c(F)cccc2Cl)CC1 | 15 |

Pending compound:
Using the record for COc1cccc(N2CCN(C[C@H](O)COc3ccc(C(F)(F)F)cc3)CC2)c1 , report its Tmax.
15

----------
- target.system: Voltage-dependent T-type calcium channel subunit alpha-1G (Homo sapiens, UniProt O43497)
- assay: Inhibition of alpha-1G calcium channel in human HEK293 cells at 10 uM by FDSS6000 fluorescence-based assay
# cutoff 50% applies to inhibition; >= gives rule met, < gives rule not met

// below: answered molecules
| compound.smiles | class.assignment |
| --- | --- |
| O[C@H](COc1ccc(F)cc1)CN1CCN(Cc2ccc(Cl)c(Cl)c2)CC1 | rule met |
| O[C@H](COc1ccc(F)cc1)CN1CCN(Cc2ccc(Cl)cc2)CC1 | rule met |
| COc1ccccc1N1CCN(C[C@@H](O)COc2ccc(C(F)(F)F)cc2)CC1 | rule met |
| COc1ccccc1N1CCN(C[C@H](O)COc2ccc(F)cc2)CC1 | rule not met |
| O[C@@H](COc1ccc(Cl)cc1)CN1CCN(c2ccc(F)cc2)CC1 | rule not met |

Quick check: does O[C@H](COc1ccc(Cl)cc1)CN1CCN(Cc2cccc(Cl)c2)CC1 have inhibition greater than or equal to 50%?
rule met

Please tell me: is the molecule O[C@@H](COc1ccc(C(F)(F)F)cc1)CN1CCN(Cc2ccccc2F)CC1 at or over 50% in terms of inhibition?
rule not met

Hi, just wondering whether COc1cccc(N2CCN(C[C@H](O)COc3ccc(F)cc3)CC2)c1 shows inhibition of 50% or higher.
rule not met

----------
- assay: Ratio of AUC in brain to AUC in plasma of ICR mouse at 10 mg/kg, po
- Format: ADME, organism-based
- Set-up: dose 10 mg/kg, route oral
Exercise: for every item that follows, state its recorded Kp.

| compound.smiles | Kp |
| --- | --- |
| COc1cccc(N2CCN(C[C@H](O)COc3ccc(C(F)(F)F)cc3)CC2)c1 | 3.46 |

Would you kindly look at the next entry?
Item O[C@H](COc1ccc(C(F)(F)F)cc1)CN1CCN(Cc2c(F)cccc2Cl)CC1 has what recorded Kp?
7.63

----------
Record: pIC50 reported on Voltage-gated inwardly rectifying potassium channel KCNH2 (Homo sapiens, UniProt Q12809).
Sequence (Q12809 whole entry): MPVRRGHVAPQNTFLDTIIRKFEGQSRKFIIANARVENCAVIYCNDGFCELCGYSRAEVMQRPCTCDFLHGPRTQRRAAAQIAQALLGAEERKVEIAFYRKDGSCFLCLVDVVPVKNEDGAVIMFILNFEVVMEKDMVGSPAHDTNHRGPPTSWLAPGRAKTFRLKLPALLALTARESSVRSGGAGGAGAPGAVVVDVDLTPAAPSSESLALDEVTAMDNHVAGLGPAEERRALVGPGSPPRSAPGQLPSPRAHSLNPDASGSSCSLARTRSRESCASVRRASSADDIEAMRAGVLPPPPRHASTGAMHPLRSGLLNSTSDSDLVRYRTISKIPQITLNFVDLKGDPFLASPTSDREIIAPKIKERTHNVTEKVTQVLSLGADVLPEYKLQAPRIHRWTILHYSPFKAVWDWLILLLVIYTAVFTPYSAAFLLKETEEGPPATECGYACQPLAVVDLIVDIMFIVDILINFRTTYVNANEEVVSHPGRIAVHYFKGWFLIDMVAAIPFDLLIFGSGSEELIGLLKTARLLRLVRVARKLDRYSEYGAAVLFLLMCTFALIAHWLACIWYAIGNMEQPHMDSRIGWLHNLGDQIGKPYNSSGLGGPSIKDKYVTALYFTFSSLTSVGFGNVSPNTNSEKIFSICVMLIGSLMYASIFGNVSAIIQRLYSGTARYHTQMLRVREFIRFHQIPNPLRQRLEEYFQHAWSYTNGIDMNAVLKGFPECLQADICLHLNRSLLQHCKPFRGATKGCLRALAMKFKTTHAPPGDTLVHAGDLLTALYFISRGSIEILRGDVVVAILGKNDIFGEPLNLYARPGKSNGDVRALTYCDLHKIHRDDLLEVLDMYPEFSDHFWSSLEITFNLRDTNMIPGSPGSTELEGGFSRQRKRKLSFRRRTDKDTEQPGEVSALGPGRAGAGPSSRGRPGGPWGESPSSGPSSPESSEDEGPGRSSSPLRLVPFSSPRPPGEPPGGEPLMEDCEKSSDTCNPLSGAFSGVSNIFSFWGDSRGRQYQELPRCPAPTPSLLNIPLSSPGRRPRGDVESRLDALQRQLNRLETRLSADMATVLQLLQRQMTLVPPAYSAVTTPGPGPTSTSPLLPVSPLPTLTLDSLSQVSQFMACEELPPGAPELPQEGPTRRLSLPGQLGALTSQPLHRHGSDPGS
One number for each entry, as −log10 of the molar value.

| compound.smiles | test.result |
| --- | --- |
| O[C@H](COc1ccc(Cl)cc1)CN1CCN(Cc2c(F)cccc2Cl)CC1 | 5.68 |
| COc1cccc(N2CCN(C[C@H](O)COc3ccc(C(F)(F)F)cc3)CC2)c1 | 5.39 |
| COc1ccccc1N1CCN(C[C@@H](O)COc2ccc(C(F)(F)F)cc2)CC1 | 5.40 |
| O[C@@H](COc1ccc(C(F)(F)F)cc1)CN1CCN(Cc2ccc(Cl)c(Cl)c2)CC1 | 5.04 |
| O[C@@H](COc1ccc(F)cc1)CN1CCN(Cc2ccc(Cl)c(Cl)c2)CC1 | 6.06 |

Required: pIC50, one value per molecule below.
1. O[C@H](COc1ccc(F)cc1)CN1CCN(Cc2ccc(Cl)cc2)CC1
2. O[C@H](COc1ccc(C(F)(F)F)cc1)CN1CCN(Cc2c(F)cccc2Cl)CC1
3. O[C@H](COc1ccc(F)cc1)CN1CCN(Cc2ccc(Cl)c(Cl)c2)CC1

[5.87, 4.85, 6.54]

----------
For each record, write down the corresponding inhibition.
- target.system: Voltage-dependent T-type calcium channel subunit alpha-1G (Homo sapiens)
- assay: Inhibition of alpha-1G calcium channel in human HEK293 cells at 10 uM by FDSS6000 fluorescence-based assay
Numbers only, in %.

I need inhibition for every entry listed below, if you could help.
1. O[C@@H](COc1ccc(Cl)cc1)CN1CCN(Cc2ccc(Cl)c(Cl)c2)CC1
2. O[C@H](COc1ccc(C(F)(F)F)cc1)CN1CCN(c2ccccc2F)CC1
3. COc1cccc(N2CCN(C[C@H](O)COc3ccc(Cl)cc3)CC2)c1
4. O[C@@H](COc1ccc(F)cc1)CN1CCN(c2ccc(F)cc2)CC1
5. O[C@@H](COc1ccc(Cl)cc1)CN1CCN(Cc2cccc(Cl)c2)CC1

1: 48.6; 2: 48.9; 3: 46; 4: 47.5; 5: 46

----------
Answer each item with its documented inhibition.
- target.system: Voltage-dependent T-type calcium channel subunit alpha-1G (Homo sapiens)
- assay: Inhibition of alpha-1G calcium channel in human HEK293 cells at 10 uM by FDSS6000 fluorescence-based assay
One number for each entry, in %.

Observe how each entry below is paired with its result.
| compound.smiles | target.system | inhibition (%) |
| --- | --- | --- |
| O[C@H](COc1ccc(Cl)cc1)CN1CCN(Cc2c(F)cccc2Cl)CC1 | Voltage-dependent T-type calcium channel subunit alpha-1G (Homo sapiens) | 54.4 |
| O[C@@H](COc1ccc(F)cc1)CN1CCN(Cc2ccc(Cl)c(Cl)c2)CC1 | Voltage-dependent T-type calcium channel subunit alpha-1G (Homo sapiens) | 69.5 |

Proceed to the following item.
Record request: inhibition value, item COc1cccc(N2CCN(C[C@@H](O)COc3ccc(C(F)(F)F)cc3)CC2)c1
43.9
